target: AGO2 L192P (Homo sapiens, UniProt Q9UKV8 1-859, L192P;S387D;S824A;S828D;S831D;S834A); assay: RNA Bind-n-Seq (nitrocellulose filter binding and sequencing); miR-122 guide loaded in AGO2; 60 min incubation; 30 mM Tris pH 8.0, 100 mM potassium acetate, 2 mM magnesium acetate, 0.5 mM TCEP, 0.005% NP-40, 0.01 mg/ml yeast tRNA; 3 nM AGO2-miR-122, 100 nM RNA library; 60; high values mean tight binding; conditions: protein: recombinant; tags: His6 (N-terminal, pFastBac HTA)
Sequence (Q9UKV8 whole entry L192P/S387D/S824A/S828D/S831D/S834A): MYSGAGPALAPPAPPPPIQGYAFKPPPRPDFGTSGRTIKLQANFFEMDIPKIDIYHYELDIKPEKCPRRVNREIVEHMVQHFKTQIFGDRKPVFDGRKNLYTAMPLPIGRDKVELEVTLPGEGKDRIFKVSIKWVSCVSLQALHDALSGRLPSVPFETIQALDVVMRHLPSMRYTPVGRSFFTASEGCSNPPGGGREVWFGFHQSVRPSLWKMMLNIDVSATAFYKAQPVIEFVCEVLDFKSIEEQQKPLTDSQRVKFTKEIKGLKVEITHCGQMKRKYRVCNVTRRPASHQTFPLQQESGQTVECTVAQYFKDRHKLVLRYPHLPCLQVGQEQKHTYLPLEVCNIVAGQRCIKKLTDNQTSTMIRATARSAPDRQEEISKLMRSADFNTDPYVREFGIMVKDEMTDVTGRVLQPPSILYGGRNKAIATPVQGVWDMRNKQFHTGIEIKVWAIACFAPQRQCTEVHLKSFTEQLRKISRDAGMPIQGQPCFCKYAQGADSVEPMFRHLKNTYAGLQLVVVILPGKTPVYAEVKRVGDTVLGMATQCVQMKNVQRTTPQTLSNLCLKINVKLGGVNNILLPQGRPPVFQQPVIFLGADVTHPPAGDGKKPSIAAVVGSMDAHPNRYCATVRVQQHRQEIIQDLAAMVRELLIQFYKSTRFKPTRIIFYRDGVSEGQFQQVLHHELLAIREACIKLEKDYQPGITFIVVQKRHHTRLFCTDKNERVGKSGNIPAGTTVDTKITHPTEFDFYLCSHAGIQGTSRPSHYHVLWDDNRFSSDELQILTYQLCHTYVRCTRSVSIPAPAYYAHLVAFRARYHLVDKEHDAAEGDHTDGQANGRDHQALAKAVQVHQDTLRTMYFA
Record form. Attribute: binding signal. Fill in for each entry.

Look up binding signal: GTACCCCA (ssRNA, constant regions annealed to DNA blockers; guide miR-122 5' phosphate) RNA 1: GAGUUCUACAGUCCGACGAUCCCAACGUACCCCACACCUGGAAUUCUCGGGUGCCAA RNA 2: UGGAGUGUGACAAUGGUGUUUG DNA 1: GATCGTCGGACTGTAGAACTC DNA 2: TTGGCACCCGAGAATTCCA
0.497 fold enrichment over input

Fill in: binding signal of ATGTCCTA (ssRNA, constant regions annealed to DNA blockers; guide miR-122 5' phosphate) RNA 1: GAGUUCUACAGUCCGACGAUCCCAACAUGUCCUACACCUGGAAUUCUCGGGUGCCAA RNA 2: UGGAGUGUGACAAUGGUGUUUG DNA 1: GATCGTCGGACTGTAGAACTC DNA 2: TTGGCACCCGAGAATTCCA is ___
0.506 fold enrichment over input

Please look up its binding signal: GCACCCTA (ssRNA, constant regions annealed to DNA blockers; guide miR-122 5' phosphate) RNA 1: GAGUUCUACAGUCCGACGAUCCCAACGCACCCUACACCUGGAAUUCUCGGGUGCCAA RNA 2: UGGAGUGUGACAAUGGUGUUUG DNA 1: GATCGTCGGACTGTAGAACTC DNA 2: TTGGCACCCGAGAATTCCA
0.515 fold enrichment over input

# query: binding signal of entry GTGTCCTG (ssRNA, constant regions annealed to DNA blockers; guide miR-122 5' phosphate) RNA 1: GAGUUCUACAGUCCGACGAUCCCAACGUGUCCUGCACCUGGAAUUCUCGGGUGCCAA RNA 2: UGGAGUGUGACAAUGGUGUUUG DNA 1: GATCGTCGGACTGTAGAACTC DNA 2: TTGGCACCCGAGAATTCCA
0.335 fold enrichment over input

Any idea what binding signal was measured for ACGTCTTG (ssRNA, constant regions annealed to DNA blockers; guide miR-122 5' phosphate) RNA 1: GAGUUCUACAGUCCGACGAUCCCAACACGUCUUGCACCUGGAAUUCUCGGGUGCCAA RNA 2: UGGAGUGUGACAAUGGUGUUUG DNA 1: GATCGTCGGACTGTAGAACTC DNA 2: TTGGCACCCGAGAATTCCA ?
0.319 fold enrichment over input

Give the measured binding signal of GCGTTTTA (ssRNA, constant regions annealed to DNA blockers; guide miR-122 5' phosphate) RNA 1: GAGUUCUACAGUCCGACGAUCCCAACGCGUUUUACACCUGGAAUUCUCGGGUGCCAA RNA 2: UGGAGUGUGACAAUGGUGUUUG DNA 1: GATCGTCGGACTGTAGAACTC DNA 2: TTGGCACCCGAGAATTCCA .
0.484 fold enrichment over input

Please look up its binding signal: ACATCTCG (ssRNA, constant regions annealed to DNA blockers; guide miR-122 5' phosphate) RNA 1: GAGUUCUACAGUCCGACGAUCCCAACACAUCUCGCACCUGGAAUUCUCGGGUGCCAA RNA 2: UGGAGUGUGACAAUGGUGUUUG DNA 1: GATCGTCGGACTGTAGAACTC DNA 2: TTGGCACCCGAGAATTCCA
0.347 fold enrichment over input

// query binding signal value for entry ACATCCTG (ssRNA, constant regions annealed to DNA blockers; guide miR-122 5' phosphate) RNA 1: GAGUUCUACAGUCCGACGAUCCCAACACAUCCUGCACCUGGAAUUCUCGGGUGCCAA RNA 2: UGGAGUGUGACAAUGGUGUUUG DNA 1: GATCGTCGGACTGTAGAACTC DNA 2: TTGGCACCCGAGAATTCCA
0.376 fold enrichment over input

Source listed as paper PMC12529666.
